Test system: T. cruzi-infected skeletal myoblasts (intracellular amastigotes)
Assay Info: Hit cross-validation in T. cruzi-infected mammalian cells (image-based assay)
Assay type: cell-based, Trypanosoma cruzi
Protocol Conditions: Trypanosoma cruzi, Myoblast, 72 h, read-out: EC50 against T. cruzi parasites in HTS assay used to rank order the hits
Class boundaries, taken from values of EC50, are as follows: Low (below 5 µM), Medium (5 µM to below 8 µM), High (8 µM or more)

For the record O=P(Nc1cccnc1)(Oc1ccccc1Cl)Oc1ccccc1Cl , report the class its EC50 corresponds to. Medium

Which class holds O=C(NCc1cccnc1)/C(=C\c1cccc(Oc2ccccc2)c1)S(=O)(=O)c1ccccc1 ? High

Tag the class for O=S(=O)(NCc1csc(-c2cccnc2)n1)c1ccc(Br)cc1 Medium

Determine which band this compound sits in: N#C/C(=C\C=C\c1ccccc1)C(=O)NCc1cccnc1 High

Band for COC(=O)c1ccc(-c2ccncc2)s1 ? Low

// return the class label for O=C(c1ccc(Cl)cc1Cl)C(c1cccnc1)C(O)C(Cl)(Cl)Cl (stereo not drawn) Medium

Could you tell me which band Cc1ccc(NC(=O)c2sc3nc(-c4ccncc4)ccc3c2N)cc1Cl belongs to? Low

Band for the recorded EC50 of c1ccc(CC(NCc2ccncc2)c2ccccc2)cc1 (stereo not drawn) ? Low

###

Target Or Test System: T. cruzi CYP51 (Trypanosoma cruzi)
Construct: had the first 21 residues upstream of K22 replaced with the fragment MAKKKKK; His6 (C); made in house
Assay Info: HTS spectral-mode binding screen, type II difference spectra scored 0-5
Protocol Conditions: spectral mode, four serial dilutions 2 µM to 12.5 µM, 2 µM CYP51
Kindly state HTS binding score for each of the entries shown.
Quick one: just the number, no unit, thanks!

Lab note: O=C(CSc1nc(-c2cccs2)cc(C(F)(F)F)n1)NCc1ccncc1 gave HTS binding score of 4

// recorded HTS binding score for COc1cccc(/C=C/c2ccncc2)c1OC : 2

Value of measured HTS binding score for the entry COC(=O)C1=C(N)Oc2cc(C)oc(=O)c2C1c1cccnc1 (stereo not drawn) : 4

The compound listed as COC(=O)C1=C(C)N(Cc2cccnc2)C(=O)/C1=C\c1ccccc1OCc1ccccc1 shows HTS binding score equal to 3

For reference, reported HTS binding score for CC1=C(C(=O)Nc2ccccc2)C(c2cccnc2)C(C#N)=C(SCC(=O)Nc2ccc(F)cc2)N1 (stereo not drawn) stands at 5

Documented HTS binding score of CC1=C(C(=O)Nc2cccnc2)C(c2ccc(Cl)cc2)n2nc(CCCO)nc2N1 (stereo not drawn) : 4

Documented HTS binding score of O=C(NCc1cccnc1)c1cc2c(=O)oc3ccccc3c2s1 : 5

Measured HTS binding score of c1cc(-c2nnn(CCOCCn3nnc(-c4ccncc4)n3)n2)ccn1 : 4

The reported value for CCn1c(C(=O)NCc2cccnc2)cc2oc3ccccc3c21 in terms of HTS binding score is 4

###

Target Or Test System: T. cruzi CYP51 (Trypanosoma cruzi, UniProt Q7Z1V1)
Construct: had the first 21 residues upstream of K22 replaced with the fragment MAKKKKK; His6 (C); made in house
Sequence (Q7Z1V1 15-481, looked up, natural form): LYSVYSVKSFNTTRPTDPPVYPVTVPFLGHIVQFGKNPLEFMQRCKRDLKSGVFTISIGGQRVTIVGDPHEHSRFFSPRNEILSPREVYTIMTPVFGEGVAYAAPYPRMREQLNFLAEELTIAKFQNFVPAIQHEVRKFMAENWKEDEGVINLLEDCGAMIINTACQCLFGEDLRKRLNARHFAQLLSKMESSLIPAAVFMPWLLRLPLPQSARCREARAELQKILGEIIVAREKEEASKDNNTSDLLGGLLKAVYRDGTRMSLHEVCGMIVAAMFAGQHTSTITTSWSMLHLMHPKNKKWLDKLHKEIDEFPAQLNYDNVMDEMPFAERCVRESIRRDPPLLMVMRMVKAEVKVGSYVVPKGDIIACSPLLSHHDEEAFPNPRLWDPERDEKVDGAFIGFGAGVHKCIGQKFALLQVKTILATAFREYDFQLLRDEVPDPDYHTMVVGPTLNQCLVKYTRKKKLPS
Assay Info: HTS spectral-mode binding screen, type II difference spectra scored 0-5
Protocol Conditions: spectral mode, four serial dilutions 2 µM to 12.5 µM, 2 µM CYP51
Assignment: determine reported HTS binding score for the given compounds.
Give the figure by itself; no unit, no explanation.

So, N=C(NOS(=O)(=O)c1ccc(Cl)cc1)c1ccncc1 ? Its HTS binding score was 5

For O=C(Nc1ccc(F)cc1)c1ccc2c(c1)C(=O)N(Cc1cccnc1)C2=O the compound record lists HTS binding score as 4

// HTS binding score value for O=C1C2(c3ccccc3)CN3CC1(c1ccccc1)CN(C2)C3c1cccnc1 (stereo not drawn) : 4

HTS binding score recorded for this compound, Cc1ccc(C)c(OCCCCn2ccnc2)c1 , is 4

The value of HTS binding score measured for the compound O=S(=O)(NCc1csc(-c2cccnc2)n1)c1ccc(Br)cc1 turned out to be 5

For N#Cc1nc(COc2ccccc2)oc1NCCCn1ccnc1 the compound record lists HTS binding score as 4

Recorded HTS binding score (compound N#CC1=C(N)Oc2nc(SCc3ccc(Cl)cc3)nc(N)c2C1c1cccnc1 (stereo not drawn) ): 4

// HTS binding score lookup, compound = CC(C)(C)Nc1c(-c2ccncc2)nc2ccc(Br)cn12 , result: 4

HTS binding score in this record for O=C(c1ccc(Cl)cc1Cl)C(c1cccnc1)C(O)C(Cl)(Cl)Cl (stereo not drawn) [Compound 34] : 5

###

Target Or Test System: T. cruzi CYP51 (Trypanosoma cruzi)
Construct: had the first 21 residues upstream of K22 replaced with the fragment MAKKKKK; His6 (C); made in house
Assay Info: HTS spectral-mode binding screen, type II difference spectra scored 0-5
Protocol Conditions: spectral mode, four serial dilutions 2 µM to 12.5 µM, 2 µM CYP51
Property Measured: HTS binding score

Recorded result, O=C(CN(c1ccc(Cl)cc1Cl)S(=O)(=O)c1ccccc1)NCc1ccncc1 , HTS binding score: 4

Recorded HTS binding score (compound CCOC(=O)c1cc(-c2ccc(C)cc2)n(CCC(=O)NCc2cccnc2)c1C ): 5

Lab note: O=C1C(c2ccncc2)N(CCC2=CCCCC2)C(=O)CN1C1CCCCC1 (stereo not drawn) gave HTS binding score of 4

# compound O=c1c2cnn(-c3ccc(Cl)cc3)c2ncn1Cc1cccnc1 ; its HTS binding score = 5

According to the records, this compound O=C(NCc1cccnc1)/C(=C\c1cccc(Oc2ccccc2)c1)S(=O)(=O)c1ccccc1 displays HTS binding score of 4

HTS binding score reading for O=C(NCc1cccnc1)c1ccc(COc2ccccc2Cl)o1 : 4

Per the record, O=P(Nc1cccnc1)(Oc1ccccc1Cl)Oc1ccccc1Cl [Compound 138] has HTS binding score of 5

Entry Cc1cc(Cl)ccc1OCCCC(=O)Nc1cccnc1 — recorded HTS binding score = 4

Item: O=C(NCCCn1ccnc1)c1ccccc1Br | HTS binding score: 4

###

Tested on: host cell (skeletal myoblasts, bovine embryo skeletal muscle or C2C12)
Assay Info: Host cell toxicity in the cross-validation assay
Assay type: cell-based
Protocol Conditions: host cells in cross-validation assay, up to 10 µM
Kindly state Toxicity score (highest percentage of host cell growth inhibition) for each of the entries shown.

Recorded Toxicity score (highest percentage of host cell growth inhibition) (molecule Clc1ccc(OCCCCCCn2ccnc2)cc1 [Compound 11] ): 2 (2-21-30%)

// field: Toxicity score (highest percentage of host cell growth inhibition); key: O=C(/C(=C/c1ccc(F)cc1)n1cncn1)c1ccc(Cl)cc1Cl [Compound 43] ; value = 3 (3- 31-40%)

Short answer for CCCCNC(=O)c1cc(-c2ccncc2)nc2ccccc12 [Compound 50] : Toxicity score (highest percentage of host cell growth inhibition) was 4 (4-41-50%)

The reported value for Cc1ccc(NC(=O)c2sc3nc(-c4ccncc4)ccc3c2N)cc1Cl [Compound 22] in terms of Toxicity score (highest percentage of host cell growth inhibition) is 2 (2-21-30%)

Toxicity score (highest percentage of host cell growth inhibition) recorded for this molecule, C/C(=N\OC(=O)c1c(-c2ccccc2Cl)noc1C)c1ccncc1 [Compound 33] , is 3 (3- 31-40%)

###

Can you tell me pEC50 for the items I'm about to list?
Tested on: T. cruzi-infected skeletal myoblasts (intracellular amastigotes)
Assay Info: Hit cross-validation in T. cruzi-infected mammalian cells (image-based assay)
Type: cell-based, Trypanosoma cruzi
Protocol Conditions: Trypanosoma cruzi, Myoblast, 72 h, T. cruzi-infected myoblasts, 72 h treatment; read-out: EC50 against T. cruzi parasites in HTS assay used to rank order the hits
Scale explanation: pEC50 corresponds to minus log10 of a concentration expressed in moles per litre.

Memo: CC1=C(C(=O)OC2CCCC2)C(c2ccncc2)C2=C(O)CC(C)(C)CC2=N1 (stereo not drawn) , reported pEC50: 6.51

According to the records, this compound CC1(C)CC(=O)C2=C(C1)c1c(ccc3ccccc13)NC2c1cccnc1 (stereo not drawn) displays pEC50 of 5.60

Data point: Cc1cccc(Nc2nc(-c3ccncc3)cs2)n1 ; pEC50 = 6.04

// CCO/C(O)=C1/C(C)=NC2=C(C(=O)CC(c3ccccc3)C2)C1c1cccnc1 (stereo not drawn) : pEC50 value = 5.30

Lookup result for CC(C)(C)/C(=C\n1ccnc1)c1ccc(C(F)(F)F)cc1 ; measured pEC50: 6.12

pEC50 reading for N#CC1=C(N)OC2=C(C(=O)CC(c3ccccc3)C2)C1c1cccnc1 (stereo not drawn) : 6.17

COC(=O)C1=C(N)Oc2cc(C)n(CCc3ccc(OC)c(OC)c3)c(=O)c2C1c1cccnc1 (stereo not drawn) yielded pEC50 of 6.21

pEC50 recorded for this compound, Brc1ccc(OCCCn2ccnc2)cc1 , is 5.44

Record summary for COc1ccc(S(=O)(=O)NC(C)c2ccc(-n3ccnc3)cc2)c2ccccc12 (stereo not drawn) : reported pEC50 = 6.32

###

Test system: T. cruzi-infected skeletal myoblasts (intracellular amastigotes)
Assay Info: Hit cross-validation in T. cruzi-infected mammalian cells (image-based assay)
Assay type: cell-based, Trypanosoma cruzi
Protocol Conditions: Trypanosoma cruzi, Myoblast, 72 h, read-out: EC50 against T. cruzi parasites in HTS assay used to rank order the hits
Could you please report measured EC50 for the items listed next?
Write the numeric value and follow it with the unit.

The compound listed as COC(=O)C1=C(C)N(Cc2cccnc2)C(=O)/C1=C\c1ccccc1OCc1ccccc1 shows EC50 equal to 9.06 µM

Given item CCn1c(C(=O)NCc2cccnc2)cc2oc3ccccc3c21 , the value recorded as its EC50 is 2.2 µM

Data point: Clc1ccc(Cl)c(SCCc2ccncc2)c1 ; EC50 = 7.41 µM

What the record says about Cc1ccc(OCC(=O)ONC(=N)c2cccnc2)c(Br)c1 : EC50 is 9.48 µM

The reported value for Cc1ccc(CNC(=O)C(=O)NCC(c2cccnc2)N2CCN(Cc3ccccc3)CC2)cc1 (stereo not drawn) in terms of EC50 is 1.67 µM

So, CC1=Nc2ncnn2C(c2cccnc2)/C1=C(\O)OC1CCCCC1 (stereo not drawn) ? Its EC50 was 9.54 µM

Cn1c(SCc2nc(-c3ccc(Cl)cc3)no2)nnc1-c1ccncc1 has a reported EC50 of 7.67 µM

Query CCc1ccc(-c2cc3c(=O)n(CC(=O)NCc4cccnc4)nc(C)n3n2)cc1 yields EC50 of 7.75 µM

For CN(C)C(C/N=C(\S)NCCc1ccccc1)c1cccnc1 (stereo not drawn) the compound record lists EC50 as 8.18 µM

EC50 for OC(/C=C/c1ccccc1)(Cn1ccnc1)c1ccncc1 (stereo not drawn) is 1.1 µM

EC50 for OC(c1ccccc1)(c1ccccc1)c1c[nH]cn1 is 8.22 µM

The measured EC50 associated with CC(C)/C=C1\CC/C(=C\c2ccncc2)C1=O reads 7.15 µM

Consider O=C(/C=C/c1cccs1)c1ccncc1 . Its measured EC50 is 9.62 µM

Recorded result, COc1ccc(CNc2nc3ccccc3c3nc(-c4ccncc4)nn23)cc1 , EC50: 1.93 µM

Reported EC50 ( COc1cccc(/C=C/c2ccncc2)c1OC ) = 2.98 µM
